Test system: NF-κ B
Assay: Inhibitory activity of NF-κ B activation, luciferase reporter assay in HepG2 under TNF-α stimulation
Assay type: cell-based, human
Conditions: 1 μg/mL; HepG2, TNF-α (40 ng/ml), 4 hours
Category key, based on recorded Inhibitory Ratio of NF-κ B Activation(%) Drug Concentration 1 μg/mL: bottom end: < 80%; midrange: ≥ 80% and < 90%; top end: ≥ 90%

{"chem-smiles": "O=C(Nc1nnc(C(F)(F)F)s1)c1cc(Br)ccc1O", "target-desc": "NF-κ B", "assigned-label": "bottom end"}
{"chem-smiles": "CC(=O)Nc1cc(O)c(C(=O)Nc2cc(C(F)(F)F)cc(C(F)(F)F)c2)cc1Cl", "target-desc": "NF-κ B", "assigned-label": "bottom end"}
{"chem-smiles": "CC(C)(C)c1nc(NC(=O)c2cc(Br)ccc2O)sc1C#N", "target-desc": "NF-κ B", "assigned-label": "bottom end"}
{"chem-smiles": "O=C(Nc1cc(C(F)(F)F)ccc1Oc1ccc(Cl)cc1)c1cc(Cl)ccc1O", "target-desc": "NF-κ B", "assigned-label": "top end"}
{"chem-smiles": "O=C(Nc1cc(Cl)cc(Cl)c1)c1cc(Br)ccc1O", "target-desc": "NF-κ B", "assigned-label": "bottom end"}
{"chem-smiles": "Cc1sc(NC(=O)c2cc(Br)ccc2O)nc1-c1ccccc1", "target-desc": "NF-κ B", "assigned-label": "midrange"}
{"chem-smiles": "O=C(Nc1cc(C(F)(F)F)cc(C(F)(F)F)c1)c1cccc(Cl)c1O", "target-desc": "NF-κ B", "assigned-label": "midrange"}
{"chem-smiles": "O=C(Nc1cc(C(F)(F)F)ccc1N1CCCC1)c1cc(Br)ccc1O", "target-desc": "NF-κ B", "assigned-label": "top end"}
{"chem-smiles": "CCNC(=O)c1sc(NC(=O)c2cc(Br)ccc2O)nc1-c1ccccc1", "target-desc": "NF-κ B", "assigned-label": "bottom end"}
{"chem-smiles": "O=C(Nc1cc(C(F)(F)F)cc(C(F)(F)F)c1)c1c(O)c(Cl)cc(Cl)c1Cl", "target-desc": "NF-κ B", "assigned-label": "top end"}
{"chem-smiles": "CC(C)(C)c1cc(NC(=O)c2cc(Cl)cnc2O)cc(C(C)(C)C)c1", "target-desc": "NF-κ B", "assigned-label": "bottom end"}

###

System: type II collagen induced arthritis
Assay: Inhibitory test against type II collagen induced arthritis in mice
Format: in vivo, Balb/c mice
Conditions: 10 mg/kg intraperitoneally once in two days; day 44; score of the control = 100%
Procedure: Balb/c mice were immunized with heterologous type II collagen and Freund's complete adjuvant by subcutaneous or intraperitoneal injection. […] A test substance suspended in an appropriate diluent or the diluent alone (negative control) was administered intraperitoneally once in two days from the day of the first immunization, and as for arthritis developed after the second immunization, clinical symptoms of each ankle joint of all foots were recorded day after day as numerous scores. […]
So basically, if rates of exacerbation (%) of the clinical symptoms of arthritis comes in under 60% it's true, and if it's 60% or more it's false.

{"chem-smiles": "O=C(Nc1cc(C(F)(F)F)cc(C(F)(F)F)c1)c1cc(Cl)ccc1O", "target-desc": "type II collagen induced arthritis", "assigned-label": "true"}
{"chem-smiles": "O=C(Nc1cc(C(F)(F)F)ccc1Cl)c1cc(Br)ccc1O", "target-desc": "type II collagen induced arthritis", "assigned-label": "false"}
{"chem-smiles": "O=C(Nc1cc(C(F)(F)F)ccc1C(F)(F)F)c1cc(Br)ccc1O", "target-desc": "type II collagen induced arthritis", "assigned-label": "true"}
{"chem-smiles": "CC(C)(C)c1ccc(O)c(C(=O)Nc2cc(C(F)(F)F)cc(C(F)(F)F)c2)c1", "target-desc": "type II collagen induced arthritis", "assigned-label": "true"}
{"chem-smiles": "O=C(Nc1cc(C(F)(F)F)ccc1Cl)c1cc(Cl)ccc1O", "target-desc": "type II collagen induced arthritis", "assigned-label": "false"}
